# Test system: GFPNb^R35Q-USP7
# Type: cell-based
# conditions_used: read-out: cellular IC50
result_type: IC50 (nM)
Only the number, expressed in nM, is required.

Ask | Need IC50 of O=C(C[C@@H](C(F)F)n1ccc(F)n1)N1CCC(O)(Cn2cnc3c(cnn3-c3ccc(F)cc3)c2=O)CC1 [FT671] , thanks.
Reply | 14
